Test: Pharmacokinetics after oral administration in female rats
Conditions: rat, in vivo, 7 hours, 80 mg/kg oral in aqueous CMC, read-out: plasma concentration
quantity-kind: concentration at 7 h (ng/mL)
Answer with a number only, understood to be in ng/mL.

In: // lookup concentration at 7 h for COc1ccc(C(CC(N)=O)N2Cc3ccccc3C2=O)cc1OC (racemic) [Racemic Compound]
Out: 2520

* * *

Experiment: Pharmacokinetics after oral administration in female rats
Settings: rat, in vivo, 80 mg/kg oral in aqueous CMC
quantity-kind: AUC (ng·h/mL)
Return type: number; implicit unit ng·h/mL.

In: If you can, please state the reported AUC value of COc1ccc(C(CC(N)=O)N2Cc3ccccc3C2=O)cc1OC (racemic) [Racemic Compound] .
Out: 44200

Data credit: patent US20040167199A1
